test: Brain accumulation and plasma pharmacokinetics of vandetanib in FVB mice; type: in vivo, male FVB wild type mice; conditions: male, FVB, mouse, plasma, iv, 5 mg/kg
measured attribute: clearance (mL/min/kg)
Report as a plain number; the unit mL/min/kg is understood.

[in] Complete the entry with clearance for COc1cc2c(Nc3ccc(Br)cc3F)ncnc2cc1OCC1CCN(C)CC1
[out] 9.36

---

test: Brain accumulation and plasma pharmacokinetics of vandetanib in FVB mice; assay type: in vivo, male FVB wild type mice; conditions: male, FVB, mouse, plasma, iv, 5 mg/kg
measured attribute: Vd
Form entry: enter the amount, then its unit.

[in] Supply Vd value. Item: COc1cc2c(Nc3ccc(Br)cc3F)ncnc2cc1OCC1CCN(C)CC1
[out] 1.3 L/kg

Values were extracted from paper PMC3402233.
